- measurementProtocol: Organ biodistribution of [^68Ga]Ga-DOTATATE by ex vivo gamma counting
- Type: in vivo, New Zealand White rabbits
- experimentalParameters: male, New Zealand White, rabbit, small intestine, iv, 190 MBq, total radioactivity, male control rabbits, 200 min after tracer injection, median (IQR), N = 6; read-out: Tissue radioactivity, small intestine
parameterMeasured: tissue uptake at 200 min (%ID/g)
// units = %ID/g; emit number, no label

Query block: Quick one: tissue uptake at 200 min of C[C@@H](O)[C@H](NC(=O)[C@@H]1CSSC[C@H](NC(=O)[C@@H](Cc2ccccc2)NC(=O)CN2CCN(CC(=O)O)CCN(CC(=O)O)CCN(CC(=O)O)CC2)C(=O)N[C@@H](Cc2ccc(O)cc2)C(=O)N[C@H](Cc2c[nH]c3ccccc23)C(=O)N[C@@H](CCCCN)C(=O)N[C@@H]([C@@H](C)O)C(=O)N1)C(=O)O [[^68Ga]Ga-DOTATATE, metal not drawn] ?
Result block: 0.025

* * *

- measurementProtocol: Timed organ biodistribution of [^64Cu]Cu-DOTATATE by ex vivo gamma counting
- Format: in vivo, mice
- experimentalParameters: mouse, spleen, intravenous, 1.85 MBq, total radioactivity; female Apoe^-/- mice 12 weeks on Western Diet, 60 min after injection, median (IQR), N=3-8; read-out: Tissue radioactivity, spleen
parameterMeasured: tissue uptake at 1 h (%ID/g)
// units = %ID/g; emit number, no label

Query block: Quick one: tissue uptake at 1 h of C[C@@H](O)[C@H](NC(=O)[C@@H]1CSSC[C@H](NC(=O)[C@@H](Cc2ccccc2)NC(=O)CN2CCN(CC(=O)O)CCN(CC(=O)O)CCN(CC(=O)O)CC2)C(=O)N[C@@H](Cc2ccc(O)cc2)C(=O)N[C@H](Cc2c[nH]c3ccccc23)C(=O)N[C@@H](CCCCN)C(=O)N[C@@H]([C@@H](C)O)C(=O)N1)C(=O)O [[^64Cu]Cu-DOTATATE, metal not drawn] ?
Result block: 0.8

* * *

- measurementProtocol: Organ biodistribution of [^68Ga]Ga-DOTATATE by ex vivo gamma counting
- Type: in vivo, New Zealand White rabbits
- experimentalParameters: male, New Zealand White, rabbit, muscle, iv, 190 MBq, total radioactivity, male athero4mo rabbits, 200 min after tracer injection, median (IQR), N = 9; read-out: Tissue radioactivity, muscle
parameterMeasured: tissue uptake at 200 min (%ID/g)
// units = %ID/g; emit number, no label

Query block: Quick one: tissue uptake at 200 min of C[C@@H](O)[C@H](NC(=O)[C@@H]1CSSC[C@H](NC(=O)[C@@H](Cc2ccccc2)NC(=O)CN2CCN(CC(=O)O)CCN(CC(=O)O)CCN(CC(=O)O)CC2)C(=O)N[C@@H](Cc2ccc(O)cc2)C(=O)N[C@H](Cc2c[nH]c3ccccc23)C(=O)N[C@@H](CCCCN)C(=O)N[C@@H]([C@@H](C)O)C(=O)N1)C(=O)O [[^68Ga]Ga-DOTATATE, metal not drawn] ?
Result block: 0.003

* * *

- measurementProtocol: Timed organ biodistribution of [^64Cu]Cu-DOTATATE by ex vivo gamma counting
- Type: in vivo, mice
- experimentalParameters: mouse, lungs, intravenous, 1.85 MBq, total radioactivity; female Apoe^-/- mice 12 weeks on Western Diet, 5 min after injection, median (IQR), N=3-8; read-out: Tissue radioactivity, lungs
parameterMeasured: tissue uptake at 5 min (%ID/g)
// units = %ID/g; emit number, no label

Query block: Quick one: tissue uptake at 5 min of C[C@@H](O)[C@H](NC(=O)[C@@H]1CSSC[C@H](NC(=O)[C@@H](Cc2ccccc2)NC(=O)CN2CCN(CC(=O)O)CCN(CC(=O)O)CCN(CC(=O)O)CC2)C(=O)N[C@@H](Cc2ccc(O)cc2)C(=O)N[C@H](Cc2c[nH]c3ccccc23)C(=O)N[C@@H](CCCCN)C(=O)N[C@@H]([C@@H](C)O)C(=O)N1)C(=O)O [[^64Cu]Cu-DOTATATE, metal not drawn] ?
Result block: 2.6

The reported numbers originate from paper PMC9007951.
